target: Beta-2 adrenergic receptor (Homo sapiens); assay: Agonist activity at human beta2 adrenergic receptor expressed in HEK293 cells assessed as stimulation of cAMP accumulation
measure: EC50 (µM)
Give bare numbers, in µM.

{"smiles_string": "CC[C@H](Cc1ccc(OC)cc1)NC[C@H](O)c1cc(O)cc(O)c1", "EC50 (µM)": 0.00163}
{"smiles_string": "COc1ccc(C[C@H](NC[C@H](O)c2cc(O)cc(O)c2)C(C)C)cc1", "EC50 (µM)": 26.2}
{"smiles_string": "COc1ccc(C[C@@H](NC[C@H](O)c2cc(O)cc(O)c2)C(C)C)cc1", "EC50 (µM)": 6.1}

Item "CC[C@@H](Cc1ccc(OC)cc1)NC[C@H](O)c1cc(O)cc(O)c1" with Beta-2 adrenergic receptor (Homo sapiens) - EC50?
1.01

---

molecular target: Beta-2 adrenergic receptor (Homo sapiens, UniProt P07550); assay: Displacement of [3H]-(R,R')-methoxyfenoterol from human beta2 adrenergic receptor expressed in HEK cells by liquid scintillation counting analysis; assay type: cell-based, HEK293
Sequence (P07550 whole entry): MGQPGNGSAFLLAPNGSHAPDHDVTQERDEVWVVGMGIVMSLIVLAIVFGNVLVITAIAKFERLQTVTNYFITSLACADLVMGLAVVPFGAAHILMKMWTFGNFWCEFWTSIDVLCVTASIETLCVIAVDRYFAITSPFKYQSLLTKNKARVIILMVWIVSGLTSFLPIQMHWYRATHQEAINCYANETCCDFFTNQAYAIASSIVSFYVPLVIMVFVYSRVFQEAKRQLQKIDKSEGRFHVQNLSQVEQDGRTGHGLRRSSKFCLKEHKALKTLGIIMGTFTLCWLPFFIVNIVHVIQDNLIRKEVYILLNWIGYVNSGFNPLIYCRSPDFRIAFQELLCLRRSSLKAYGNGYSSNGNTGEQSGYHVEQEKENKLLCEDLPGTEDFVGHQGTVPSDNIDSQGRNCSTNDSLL
pKi: −log10 of the molar value.
Decision: pKi compared against 7; not below it gives T, below it gives F.

Sample answers from the record:
{"smiles_string": "COc1ccc(C[C@@H](NC[C@H](O)c2cc(O)cc(O)c2)C(C)C)cc1", "category": "F"}
{"smiles_string": "CC[C@H](Cc1ccc(O)cc1)NC[C@H](O)c1cc(O)cc(O)c1", "category": "T"}

Identify whether the reported pKi of the following compound is 7 or greater: "CC[C@H](Cc1ccc(OC)cc1)NC[C@H](O)c1cc(O)cc(O)c1"
T

Identify whether the reported pKi of the following compound is 7 or greater: "COc1ccc(C[C@H](NC[C@H](O)c2cc(O)cc(O)c2)C(C)C)cc1"
F

Identify whether the reported pKi of the following compound is 7 or greater: "CC[C@@H](Cc1ccc(OC)cc1)NC[C@H](O)c1cc(O)cc(O)c1"
F

Identify whether the reported pKi of the following compound is 7 or greater: "CC[C@@H](Cc1ccc(O)cc1)NC[C@H](O)c1cc(O)cc(O)c1"
F

---

target: Beta-2 adrenergic receptor (Homo sapiens); assay: Displacement of [3H]-CGP-12177 from human beta2 adrenergic receptor expressed in HEK cells by liquid scintillation counting analysis; format: cell-based, HEK293
Give pKi for every item shown.
Numbers only, as −log10 of the molar value.

{"smiles_string": "CC[C@H](Cc1ccc(OC)cc1)NC[C@H](O)c1cc(O)cc(O)c1", "target_desc": "Beta-2 adrenergic receptor (Homo sapiens)", "pKi": 6.38}

# evaluate next
Return reported pKi; argument: "CC[C@@H](Cc1ccc(OC)cc1)NC[C@H](O)c1cc(O)cc(O)c1"
4.70

The measurements presented in this section are drawn from ChEMBL document CHEMBL3097992.
